Provenance of the data: the supplement of paper PMC6965134

- experimental_details: TIMS collisional cross section (CCS, N2) of the lipid ion; higher = larger ion cross section
- settings: sample type: Liver; ionization mode: positive; one isomer drawn
readout_label: TIMS collisional cross section (Å²)

CCCCCCCCCCCCCCCCCCCCCC(=O)OC[C@@H](COC(=O)CCCCCCCCCCCCCCCCC)OC(=O)CCCCCCCCCCCCCCCCCC [TG 18:0_19:0_22:0] (ion (formula + adduct): [C62H120O6+NH4] 1+) ... 346.5
CC/C=C\C/C=C\C/C=C\C/C=C\C/C=C\C/C=C\CCC(=O)OC[C@@H](COC(=O)CCCCCCCCCCCCCCC)OC(=O)CCCCCCC/C=C\C/C=C\CCCCC [TG 16:0_18:2_22:6] (ion (formula + adduct): [C59H98O6+NH4] 1+) ... 325.3
CCCCC/C=C\C/C=C\CCCCCCCC(=O)OC[C@H](COP(=O)(O)OCCN)OC(=O)CCCCCCCCC/C=C\CCCCCCCC [PE 18:2_20:1] (ion (formula + adduct): [C43H80NO8P+Na] 1+) ... 284.2
CCCCCCCCCCCCCCCC(=O)OC[C@@H](COC(=O)CCCCCCCCCCCCC)OC(=O)CCCCCCCCCCCCCC [TG 14:0_15:0_16:0] (ion (formula + adduct): [C48H92O6+NH4] 1+) ... 304.9
CCCCCCCC/C=C\CCCCCCCCCC(=O)O[C@H](COC(=O)CCCCCCCCCCCCCCCCC)COP(=O)(O)OCCN [PE 18:0_20:1] (ion (formula + adduct): [C43H84NO8P+H] 1+) ... 289.3
